assay: PAMPA test (parallel artificial membrane permeability assay); assay type: in vitro ADME; conditions: phosphate buffer pH 6.8, about 200 μM, about 5 hours, room temperature, read-out: Test Example 4 membrane permeation coefficient Pe
Recorded Papp values for a group of compounds are listed next.
assayEndpoint: Papp

[[record]]
compound = "C=CCN1CC(=O)N2[C@@H](Cc3ccc(O)cc3F)C(=O)N(Cc3cccc(N4CC(N5CCN(C)C[C@@H]5C)C4)n3)C[C@@H]2N1C(=O)NCc1ccccc1"
assayendpoint = "Papp"
value = "2.38 ×10⁻⁶ cm/s"

[[record]]
compound = "C=CCN1CC(=O)N2[C@@H](Cc3ccc(O)cc3F)C(=O)N(Cc3cccc(N4CC(N5CCN(C(C)C)CC5)C4)n3)C[C@@H]2N1C(=O)NCc1ccccc1"
assayendpoint = "Papp"
value = "2.55 ×10⁻⁶ cm/s"

[[record]]
compound = "C=CCN1CC(=O)N2[C@@H](Cc3ccc(O)cc3F)C(=O)N(Cc3ccc(F)c(N4CC(N5C[C@@H]6C[C@H]5CN6C(C)C)C4)n3)C[C@@H]2N1C(=O)NCc1ccccc1 [Reference Example 4]"
assayendpoint = "Papp"
value = "0.68 ×10⁻⁶ cm/s"

[[record]]
compound = "C=CCN1CC(=O)N2[C@@H](Cc3c(F)cc(O)cc3F)C(=O)N(Cc3cccc(N4CC(N5CCN(C(C)C)CC5)C4)n3)C[C@@H]2N1C(=O)NCc1ccccc1"
assayendpoint = "Papp"
value = "0.87 ×10⁻⁶ cm/s"

[[record]]
compound = "C=CCN1CC(=O)N2[C@@H](Cc3ccc(O)cc3)C(=O)N(Cc3cccc(N4CC(N5CCN(CC)CC5)C4)n3)C[C@@H]2N1C(=O)NCc1ccccc1"
assayendpoint = "Papp"
value = "1.32 ×10⁻⁶ cm/s"

